assay: Clearance in rat at 1 mg/kg, iv; type: ADME, organism-based; settings: in vivo
MEASURED QUANTITY: clearance (mL/min/kg)
Answers are plain numbers, in mL/min/kg.

Here are 2 compounds together with their reported answers.
>>> result("N#Cc1ccc(N2C(=O)[C@]3(CCOC3)N(c3ccc(C(N)=O)c(F)c3)C2=S)cc1C(F)(F)F")
55
>>> result("CNC(=O)c1ccc(N2C(=S)N(c3ccc(C#N)c(C(F)(F)F)c3)C(=O)[C@]23CCOC3)cc1F")
6.67

Request: Can you look up the measured clearance of N#Cc1ccc(N2C(=O)[C@]3(CCOC3)N(c3ccc(C(=O)O)c(F)c3)C2=S)cc1C(F)(F)F for me?
Response: 33.3
